Below, each of the compounds is paired with its reported IC50 value.
Biological target: P2X purinoceptor 7 (Homo sapiens)
Sequence (Q99572 whole entry): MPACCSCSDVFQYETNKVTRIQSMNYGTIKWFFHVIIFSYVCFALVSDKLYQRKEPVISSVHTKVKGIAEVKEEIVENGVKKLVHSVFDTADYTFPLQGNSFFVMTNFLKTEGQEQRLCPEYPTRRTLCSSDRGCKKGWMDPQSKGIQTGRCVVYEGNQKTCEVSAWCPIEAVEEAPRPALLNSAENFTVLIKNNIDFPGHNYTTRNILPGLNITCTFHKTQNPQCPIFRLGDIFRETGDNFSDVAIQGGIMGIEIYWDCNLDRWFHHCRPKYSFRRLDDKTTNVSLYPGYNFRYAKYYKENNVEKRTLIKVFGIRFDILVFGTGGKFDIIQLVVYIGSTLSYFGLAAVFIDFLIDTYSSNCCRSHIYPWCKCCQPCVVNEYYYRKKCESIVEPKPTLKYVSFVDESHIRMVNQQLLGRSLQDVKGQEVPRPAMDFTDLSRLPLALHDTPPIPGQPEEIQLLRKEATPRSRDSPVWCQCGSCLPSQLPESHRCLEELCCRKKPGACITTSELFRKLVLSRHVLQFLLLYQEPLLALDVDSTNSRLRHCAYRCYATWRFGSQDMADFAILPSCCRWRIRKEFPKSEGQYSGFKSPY
Experiment: Antagonist activity against human P2X7R stably transfected in human 1321N1 cells incubated for 30 mins by Fura-2 AM staining based calcium influx assay
Type: cell-based
Please reply with the bare figure in nM and do not write the unit itself.

Example cases with answers are listed next.
{"SMI": "O=C(NC(=S)Nc1cc(Br)cc(C(F)(F)F)c1)c1ccc2c(c1)OCO2", "ASSAYED_SYSTEM": "P2X purinoceptor 7 (Homo sapiens)", "IC50 [nM]": 1250}
{"SMI": "O=C(NC(=S)Nc1cccc2cccnc12)c1ccc2c(c1)OCO2", "ASSAYED_SYSTEM": "P2X purinoceptor 7 (Homo sapiens)", "IC50 [nM]": 18}
{"SMI": "O=C(NC(=S)Nc1c(Br)ccc(C(F)(F)F)c1Br)c1ccc2c(c1)OCO2", "ASSAYED_SYSTEM": "P2X purinoceptor 7 (Homo sapiens)", "IC50 [nM]": 3560}

Exercise: Tell me its IC50 given "NS(=O)(=O)c1ccc(CCNC(=S)NC(=O)c2ccc3c(c2)OCO3)cc1" as the entry.
Solution: 45

Exercise: Tell me its IC50 given "O=C(NC(=S)Nc1cc(Cl)c(O)c(Cl)c1)c1ccc2c(c1)OCO2" as the entry.
Solution: 1640

Exercise: Tell me its IC50 given "O=C(NC(=S)Nc1ccc(O)cc1)c1ccc2c(c1)OCO2" as the entry.
Solution: 902

Data origin, for the record: ChEMBL document CHEMBL5137039
